Taken from the supplement of paper PMC7877785.

assay: self-splicing fitness, log relative to wild type (ln ratio); higher = more splicing; Tetrahymena group I intron in knt gene, E. coli kanamycin selection, DiMSum; sequences stand for … in CUCUCU…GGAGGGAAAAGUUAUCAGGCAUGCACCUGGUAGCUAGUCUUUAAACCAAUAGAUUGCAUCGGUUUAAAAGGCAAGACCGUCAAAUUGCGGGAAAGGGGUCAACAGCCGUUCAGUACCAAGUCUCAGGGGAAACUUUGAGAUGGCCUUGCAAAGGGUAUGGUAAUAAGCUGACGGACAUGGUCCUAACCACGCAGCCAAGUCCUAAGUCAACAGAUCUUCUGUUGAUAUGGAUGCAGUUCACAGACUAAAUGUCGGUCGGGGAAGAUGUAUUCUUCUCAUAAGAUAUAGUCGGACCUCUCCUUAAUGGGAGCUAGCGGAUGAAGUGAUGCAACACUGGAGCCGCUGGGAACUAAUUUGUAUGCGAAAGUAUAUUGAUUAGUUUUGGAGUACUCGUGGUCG; settings: 37 °C;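 note: selection with 25 µg/mL kanamycin versus none on LB agar overnight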
Entries and their measured self-splicing fitness (ln) follow.
I only need the number, thanks.

Use these answered entries as a reference point.
• CGGUAGCAAUAUUACGUAGA = -1.89
• CAGCAGCAAUAUUACGCGCA = -0.346
• CGUUAGCAAUAUUACGGCGA = -1.61
• AGUGAGCAAUAUUACGCGAA = -1.56
• AGCAAGCAAUAUUACGCUGU = -0.265

Prompt: What value of self-splicing fitness (ln) has been reported for the following sequence? "CGCAAGCAAUAUUACGUCAU"
Completion: -2.4

Prompt: Here is the next sequence: "UUCCAGCAAUAUUACGCGGC"
Completion: -1.38

Prompt: Here is the next sequence: "AGUAAGCAAUAUUACGAAAA"
Completion: -1.89

Prompt: Here is the next sequence: "AGGAAGCAAUAUUACGUUGU"
Completion: -2.82

Prompt: Here is the next sequence: "CGCUAGCAAUAUUACGCCUU"
Completion: -0.069

Prompt: Here is the next sequence: "AAUGAGCAAUAUUACGAUUU"
Completion: -0.73

Prompt: Here is the next sequence: "UGGGAGCAAUAUUACGAGGG"
Completion: -1.99

---

assay: self-splicing fitness, log relative to wild type (ln ratio); higher = more splicing; Tetrahymena group I intron in knt gene, E. coli kanamycin selection, DiMSum; sequences stand for … in CUCUCU…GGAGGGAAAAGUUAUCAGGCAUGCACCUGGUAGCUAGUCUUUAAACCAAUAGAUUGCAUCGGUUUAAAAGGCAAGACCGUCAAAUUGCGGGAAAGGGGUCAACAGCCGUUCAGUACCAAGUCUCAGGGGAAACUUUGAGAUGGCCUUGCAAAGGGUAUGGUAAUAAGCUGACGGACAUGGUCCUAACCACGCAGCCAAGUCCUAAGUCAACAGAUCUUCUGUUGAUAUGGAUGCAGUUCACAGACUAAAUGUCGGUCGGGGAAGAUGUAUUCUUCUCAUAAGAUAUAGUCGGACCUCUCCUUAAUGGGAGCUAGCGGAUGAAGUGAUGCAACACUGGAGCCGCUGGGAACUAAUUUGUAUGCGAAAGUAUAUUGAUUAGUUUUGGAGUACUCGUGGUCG; conditions: 30 °C
metric: self-splicing fitness (ln)
I only need the number, thanks.

- CGCUAGCAAUAUUACGCUGA: -2.69
- CCAGAGCAAUAUUACGAAUA: -2.84
- GACUAGCAAUAUUACGCACC: -0.905
- GGGAAGCAAUAUUACGACAG: -3.01

Prompt: What value of self-splicing fitness (ln) has been reported for the following sequence? "CACAAGCAAUAUUACGCGGC"
Completion: -3.25

Prompt: Here is the next sequence: "UAAUAGCAAUAUUACGAUUA"
Completion: -1.04

Prompt: Here is the next sequence: "AUUGAGCAAUAUUACGAGGU"
Completion: -3.14

Prompt: Here is the next sequence: "UAGGAGCAAUAUUACGAGCA"
Completion: -2.38
